- Assay remarks: Prodrug bioconversion in intestinal S9 cell fractions
- Assay type: in vitro ADME
- Particulars: Human; 0.25 mg/mL; Experiment 1

Smiles entry	Clint (prodrug disappearance)
CN(C[C@H](Cc1ccccc1)OP(=O)(O)O)C(=O)c1cncc(C#Cc2cnn(C(F)F)c2)c1	246 μL/min/mg intestinal S9 protein
CN(C[C@H](Cc1ccccc1)OP(=O)(O)O)C(=O)c1cncc(C#Cc2cnn(C)n2)c1	199 μL/min/mg intestinal S9 protein
CN(C[C@H](Cc1ccccc1)OC(=O)CN)C(=O)c1cncc(C#Cc2cnn(C)n2)c1	272 μL/min/mg intestinal S9 protein
CN(C[C@H](Cc1ccccc1)OC(=O)CN)C(=O)c1cncc(C#Cc2cnn(C(F)F)c2)c1	391 μL/min/mg intestinal S9 protein

----------
- Assay remarks: Prodrug bioconversion in intestinal S9 cell fractions
- Type: in vitro ADME
- Particulars: Dog; 0.25 mg/mL; Experiment 1
Below, each of the molecules is paired with its reported Clint (prodrug disappearance) value.

Molecule	Clint (prodrug disappearance)
CN(C[C@H](Cc1ccccc1)OC(=O)CN)C(=O)c1cncc(C#Cc2cnn(C(F)F)c2)c1 [Example 21]	5.62 μL/min/mg intestinal S9 protein
CN(C[C@H](Cc1ccccc1)OC(=O)CN)C(=O)c1cncc(C#Cc2cnn(C)n2)c1 [Example 25]	10.2 μL/min/mg intestinal S9 protein
CN(C[C@H](Cc1ccccc1)OP(=O)(O)O)C(=O)c1cncc(C#Cc2cnn(C)n2)c1 [Example 23]	354 μL/min/mg intestinal S9 protein
CN(C[C@H](Cc1ccccc1)OP(=O)(O)O)C(=O)c1cncc(C#Cc2cnn(C(F)F)c2)c1 [Example 19]	331 μL/min/mg intestinal S9 protein

----------
- Assay remarks: Prodrug bioconversion in intestinal S9 cell fractions
- Format: in vitro ADME
- Particulars: Mouse; 0.25 mg/mL; Experiment 1
Marks after values point to notes of the source that are not given here.
As shown below, each of these molecules has a reported Clint (prodrug disappearance) value.

Molecule	Clint (prodrug disappearance)
CN(C[C@H](Cc1ccccc1)OC(=O)CN)C(=O)c1cncc(C#Cc2cnn(C)n2)c1 [Example 25]	>480* μL/min/mg intestinal S9 protein
CN(C[C@H](Cc1ccccc1)OP(=O)(O)O)C(=O)c1cncc(C#Cc2cnn(C)n2)c1 [Example 23]	26.2 μL/min/mg intestinal S9 protein
CN(C[C@H](Cc1ccccc1)OC(=O)CN)C(=O)c1cncc(C#Cc2cnn(C(F)F)c2)c1 [Example 21]	>480* μL/min/mg intestinal S9 protein
CN(C[C@H](Cc1ccccc1)OP(=O)(O)O)C(=O)c1cncc(C#Cc2cnn(C(F)F)c2)c1 [Example 19]	43.1 μL/min/mg intestinal S9 protein

----------
Entries and their measured pIC50 follow.
- Tested system: RIPK1 (Homo sapiens (Human), UniProt Q13546)
- Sequence (Q13546 1-375): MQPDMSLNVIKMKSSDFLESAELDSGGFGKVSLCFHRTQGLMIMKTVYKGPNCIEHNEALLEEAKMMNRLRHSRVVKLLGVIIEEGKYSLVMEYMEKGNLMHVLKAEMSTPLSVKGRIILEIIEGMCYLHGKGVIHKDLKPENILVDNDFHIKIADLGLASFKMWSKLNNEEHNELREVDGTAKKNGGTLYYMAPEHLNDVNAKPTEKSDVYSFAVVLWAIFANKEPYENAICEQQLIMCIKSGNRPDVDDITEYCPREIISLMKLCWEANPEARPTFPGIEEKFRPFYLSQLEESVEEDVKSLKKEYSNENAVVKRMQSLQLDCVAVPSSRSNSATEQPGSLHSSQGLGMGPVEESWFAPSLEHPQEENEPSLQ
pIC50: −log10 of the molar value.
Result type: pIC50

Molecule	Result type	Readout value
CN(C[C@@H](O)Cc1ccccc1)C(=O)c1cncc(C#Cc2cnn(C3CCC3)c2)c1 [Example 6]	pIC50	8.52
CN(CC(O)Cc1ccccc1)C(=O)c1cnc(C(F)F)c(C#Cc2cnn(C)c2)c1 (stereo in doubt) [Example 9]	pIC50	7.74
CN(C[C@@H](O)Cc1ccccc1)C(=O)c1cncc(C#Cc2cnn(C3CC3)c2)c1 [Example 5]	pIC50	7.85
COc1ncc(C(=O)N(C)C[C@@H](O)Cc2ccccc2)cc1C#Cc1cnn(C)c1 [Example 13]	pIC50	7.02
CN(C[C@@H](O)Cc1cccc(F)c1)C(=O)c1cncc(C#Cc2cnn(C)c2)c1 [Example 12]	pIC50	7.89
CN(C[C@@H](O)Cc1ccccc1)C(=O)c1cncc(C#Cc2cnn(C(F)F)c2)c1 [Example 2]	pIC50	8.40
CN(C[C@@H](O)Cc1ccccc1)C(=O)c1cncc(C#Cc2cnn(C)n2)c1 [Example 3]	pIC50	7.44
Cc1ncc(C#Cc2cncc(C(=O)N(C)C[C@@H](O)Cc3ccccc3)c2)s1 [Example 15]	pIC50	4.60

----------
- Assay remarks: Prodrug bioconversion in intestinal S9 cell fractions
- Format: in vitro ADME
- Particulars: Rat; 0.01 mg/mL S9 protein; Table F
Marks after values point to notes of the source that are not given here.
Clint (prodrug disappearance) values, listed per item

Compound	Clint (prodrug disappearance)
CN(C[C@H](Cc1ccccc1)OP(=O)(O)O)C(=O)c1cncc(C#Cc2cnn(C(F)F)c2)c1 [Example 19]	<137** μL/min/mg intestinal S9 protein
CN(C[C@H](Cc1ccccc1)OC(=O)CN)C(=O)c1cncc(C#Cc2cnn(C(F)F)c2)c1 [Example 21]	2599.5 μL/min/mg intestinal S9 protein
CN(C[C@H](Cc1ccccc1)OP(=O)(O)O)C(=O)c1cncc(C#Cc2cnn(C)n2)c1 [Example 23]	<137** μL/min/mg intestinal S9 protein
CN(C[C@H](Cc1ccccc1)OC(=O)CN)C(=O)c1cncc(C#Cc2cnn(C)n2)c1 [Example 25]	1087.6 μL/min/mg intestinal S9 protein

----------
- Assay remarks: Prodrug bioconversion in intestinal S9 cell fractions
- Format: in vitro ADME
- Particulars: Mouse; 0.25 mg/mL; Experiment 2
Marks after values point to notes of the source that are not given here.
Result type: Clint (prodrug disappearance)

Smiles entry	Readout value
CN(C[C@H](Cc1ccccc1)OC(=O)CN)C(=O)c1cncc(C#Cc2cnn(C)n2)c1	>480* μL/min/mg intestinal S9 protein
CN(C[C@H](Cc1ccccc1)OC(=O)CN)C(=O)c1cncc(C#Cc2cnn(C(F)F)c2)c1	>480* μL/min/mg intestinal S9 protein
CN(C[C@H](Cc1ccccc1)OP(=O)(O)O)C(=O)c1cncc(C#Cc2cnn(C)n2)c1	34.3 μL/min/mg intestinal S9 protein
CN(C[C@H](Cc1ccccc1)OP(=O)(O)O)C(=O)c1cncc(C#Cc2cnn(C(F)F)c2)c1	74.6 μL/min/mg intestinal S9 protein

----------
- Assay remarks: Prodrug bioconversion in intestinal S9 cell fractions
- Type: in vitro ADME
- Particulars: Monkey; 0.25 mg/mL; Experiment 3

Smiles entry	Clint (prodrug disappearance)
CN(C[C@H](Cc1ccccc1)OC(=O)CN)C(=O)c1cncc(C#Cc2cnn(C(F)F)c2)c1	90.7 μL/min/mg intestinal S9 protein
CN(C[C@H](Cc1ccccc1)OC(=O)CN)C(=O)c1cncc(C#Cc2cnn(C)n2)c1	40.7 μL/min/mg intestinal S9 protein
CN(C[C@H](Cc1ccccc1)OP(=O)(O)O)C(=O)c1cncc(C#Cc2cnn(C(F)F)c2)c1	60.7 μL/min/mg intestinal S9 protein
CN(C[C@H](Cc1ccccc1)OP(=O)(O)O)C(=O)c1cncc(C#Cc2cnn(C)n2)c1	48.1 μL/min/mg intestinal S9 protein

----------
Quick reference for Clint (prodrug disappearance) among some compounds
- Assay remarks: Prodrug bioconversion in intestinal S9 cell fractions
- Format: in vitro ADME
- Particulars: Dog; 0.25 mg/mL; Experiment 3
Result type: Clint (prodrug disappearance)

Compound	Result type	Readout value
CN(C[C@H](Cc1ccccc1)OC(=O)CN)C(=O)c1cncc(C#Cc2cnn(C(F)F)c2)c1 [Example 21]	Clint (prodrug disappearance)	14.3 μL/min/mg intestinal S9 protein
CN(C[C@H](Cc1ccccc1)OP(=O)(O)O)C(=O)c1cncc(C#Cc2cnn(C(F)F)c2)c1 [Example 19]	Clint (prodrug disappearance)	397 μL/min/mg intestinal S9 protein
CN(C[C@H](Cc1ccccc1)OP(=O)(O)O)C(=O)c1cncc(C#Cc2cnn(C)n2)c1 [Example 23]	Clint (prodrug disappearance)	345 μL/min/mg intestinal S9 protein
CN(C[C@H](Cc1ccccc1)OC(=O)CN)C(=O)c1cncc(C#Cc2cnn(C)n2)c1 [Example 25]	Clint (prodrug disappearance)	11.5 μL/min/mg intestinal S9 protein

----------
Reported Clint (prodrug disappearance) is given for each of the following compounds.
- Assay remarks: Prodrug bioconversion in intestinal S9 cell fractions
- Type: in vitro ADME
- Particulars: Mouse; 0.25 mg/mL S9 protein; Table F
- From the text: Phosphatase enzymes are […] expressed with unique tissue specific isoforms and are key catalysts in the conversion of phosphate-containing prodrugs. […] […] Prodrug depletion and parent formation were monitored by LC-MS/MS and normalized to internal standard as the analyte peak area ratio.
Marks after values point to notes of the source that are not given here.
Result type: Clint (prodrug disappearance)

Smiles entry	Readout value
CN(C[C@H](Cc1ccccc1)OC(=O)CN)C(=O)c1cncc(C#Cc2cnn(C(F)F)c2)c1	>4166.5* μL/min/mg intestinal S9 protein
CN(C[C@H](Cc1ccccc1)OP(=O)(O)O)C(=O)c1cncc(C#Cc2cnn(C)n2)c1	23.3 μL/min/mg intestinal S9 protein
CN(C[C@H](Cc1ccccc1)OC(=O)CN)C(=O)c1cncc(C#Cc2cnn(C)n2)c1	>1640.7* μL/min/mg intestinal S9 protein
CN(C[C@H](Cc1ccccc1)OP(=O)(O)O)C(=O)c1cncc(C#Cc2cnn(C(F)F)c2)c1	54.7 μL/min/mg intestinal S9 protein

----------
- Tested system: RIPK1 (Homo sapiens (Human), UniProt Q13546)
pIC50: −log10 of the molar value.

Compound	pIC50
CN(C[C@@H](O)Cc1ccccc1)C(=O)c1cncc(C#Cc2cnn(C3COC3)n2)c1 [Example 10]	7.37
CN(C[C@@H](O)Cc1ccccc1)C(=O)c1cncc(C#Cc2cnn3c2COCC3)c1 [Example 8]	8.22
CN(C[C@@H](O)Cc1ccccc1)C(=O)c1cncc(C#Cc2cnn(C)c2C2CC2)c1 [Example 11]	8.70
CN(C[C@@H](O)[C@@H](F)c1ccccc1)C(=O)c1cncc(C#Cc2cnn(C)c2)c1 [Example 7]	8.15
Cc1ncc(C#Cc2cncc(C(=O)N(C)C[C@@H](O)Cc3ccccc3)c2)o1 [Example 17]	7.49
Cc1c(C#Cc2cncc(C(=O)N(C)C[C@@H](O)Cc3ccccc3)c2)cnn1C(F)F [Example 26]	8.74
CN(C[C@@H](O)Cc1ccccc1)C(=O)c1cncc(C#Cc2cnn(C(F)(F)F)c2)c1 [Example 4]	7.52
